# test.details: label from the status in PepcDB records
property.name: protein production

biopolymer.sequence	property.name	data.value
MNLFYRCRFFLFNNKVKNRGRGNKVVTNSASAKACTILFNGNNNTVILGESASLRGCLIIMSGDDHVLEIGAHTSIYKSNIAFEDHHCLISIGDYTTIQENGGISAVEPYSKIIIGKRCMFSVDVDIRNTDSHSIIKLDTGERINPGKNIFIDDKVWLGAYVQVLKGVSIGNNSIVGIRSLVTKDIPSHALAVGVPAKVIKTNVDWREERI	protein production	failed
MYLSLLKSLNRLSPRAWDFVQLTRIDKPIGIYLLLWPTLWAVWIAGKGSPSLNTVFIFVAGVFLMRAAGCVINDFADRKVDGHVKRTEQRPLVSGKVSSREALVLFAVLVSLSFVLVLFTNSTTIWLSFGGLALAACYPFMKRYTYYPQVVLGAAFSWGMPMAFTAETGELPAAAWLLYIANLLWTVGYDTYYAMVDRDDDLKIGVKSTAVLFGDADRVIILSLQGLALGCLALAGSRFELGAFFYMGLLVAAACFAWEFWSTRLRERDACFKAFLHNHWAGLAIFLGIVADYALR	protein production	failed
MGNFHATTIFAVHHNGECAMAGDGQVTMGNAVVMKHTARKVRKLFQGKVLAGFAGSVADAFTLFEMFEGKLEEYNGNLQRAAVEMAKQWRGDKMLRQLEAMLIVMDKTTMLLVSGTGEVIEPDDGILAIGSGGNYALSAGRALKQYASEHLTAKQIAKASLEIAGDICVYTNHNIIVEEL	protein production	not failed
RLAHVSAASRELARALEPDAVMAVLAGILRERLGFYRVTVALVREGALVGHLTRRGEDLYWTEGRSRIRLPVATSPDPMAQAVRERRTRIVPREALPPHLAEGVGASVAYVPVLVEEEALGCVAVDHGPGGPPVTEEEVEYVELLAGVAGVALRNAQLYRERTALSLALAAERKRLS	protein production	failed
AIADSKSHGWLIGANGTILETHDGGEHWEPRTFDFLRMDEEINYRFESISCYGNEGWIVGKPPILLHTQNGGKDWERIPLSSKLPGEPVLITALGPNRAELATTAGAIYTTDNGGKNWKALVKETIDATLNRTTSSGVTGASYYTGTVISITRDCNGYYLAISSRGNFYVTWHPGQEYWTPHPRDSSRRIQSMGFVQNDIHKGLWMANNGGFLGFSPPNPSLDTVSSIPFQRVDIRTGGYGILDVAFHQQKRNEVWASVGSGILYRSFDGGKHWEKDPWLDHLGSVLYRIKFVENSGFILGAKGTLLRYNG	protein production	not failed

Proceed to the following item.
Enquiry: Dear colleague, I am looking for the recorded protein production of the following sequence: MTRTLTTPLPTAPRAKPARRPTTLLFAYGATLNPEHIMVRLCQPKIRAIARLPDYRLGFHGHSEVWDSGLETLVDEPGAEAWGVLYELSATELDRFDAWQGVKLDGGGSYFHYPVEVIDENGQLLDALFHRKTEMGPQQPASRDYLDFILAGARARGLPARAIAVLEACTAVQARYPVPKMNTDIKALASKLSCAC
Return: failed
